assaySystem: T1, Hu FcRn (BPS Bioscience) (human, UniProt P55899 24-297; P61769 21-119)
T1 construct: Bought recombinant protein coated on ELISA plates; also called human FcRn; human neonatal Fc receptor
T1 sequence (P55899 24-297 limits assumed, chain 1 of 2): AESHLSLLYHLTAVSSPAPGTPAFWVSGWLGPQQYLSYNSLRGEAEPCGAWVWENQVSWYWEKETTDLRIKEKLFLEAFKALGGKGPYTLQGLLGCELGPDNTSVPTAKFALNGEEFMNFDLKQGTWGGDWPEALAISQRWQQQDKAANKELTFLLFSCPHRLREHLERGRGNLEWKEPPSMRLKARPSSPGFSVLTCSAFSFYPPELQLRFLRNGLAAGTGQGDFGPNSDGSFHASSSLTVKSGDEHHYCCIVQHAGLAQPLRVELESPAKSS
T1 sequence (P61769 21-119 limits assumed, chain 2 of 2): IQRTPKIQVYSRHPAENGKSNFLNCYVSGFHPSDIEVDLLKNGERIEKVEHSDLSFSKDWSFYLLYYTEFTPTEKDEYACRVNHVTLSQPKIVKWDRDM
assayExplanation: ELISA, huFcRn coated, purified Affimer, pH 6
valueType: EC50 (nM)
# value in nM; strip the unit string

binder	EC50, nM
FcRn-35 (designed binder, AFFIMER (stefin A variant); also called LGC01-35) MIPRGLSEAKPATPEIQEIVDKVKPQLEEKTNETYGKLEAVQYKTQVLAHRQYPPGPHSTNYYIKVRAGDNKYMHLKVFNGPYHFHHYYKHADRVLTGYQVDKNKDDELTGFHHHHHH	0.673
FcRn-125 (designed binder, AFFIMER (stefin A variant)) MIPRGLSEAKPATPEIQEIVDKVKPQLEEKTNETYGKLEAVQYKTQVLADHRPRHPKHSTNYYIKVRAGDNKYMHLKVFNGPAHKHHLGFKADRVLTGYQVDKNKDDELTGFHHHHHH	187
FcRn-38 (designed binder, AFFIMER (stefin A variant); also called LGC01-38) MIPRGLSEAKPATPEIQEIVDKVKPQLEEKTNETYGKLEAVQYKTQVLALSFNNYHWHSTNYYIKVRAGDNKYMHLKVFNGPKLRHDKLTHADRVLTGYQVDKNKDDELTGFHHHHHH	0.003

Let us move to another entry and its EC50.
What the record says about FcRn-120 (designed binder, AFFIMER (stefin A variant)) MIPRGLSEAKPATPEIQEIVDKVKPQLEEKTNETYGKLEAVQYKTQVLAKHKYHHTGHSTNYYIKVRAGDNKYMHLKVFNGPGQIHKVRSTADRVLTGYQVDKNKDDELTGFHHHHHH : EC50 is 50.5

Data provenance is patent US20230097573A1.
